- Tested on: mouse
- Method Notes: Acute toxicity
- Assay type: in vivo
- Measurement Context: Dose 1000 mg/kg, p.o., 24 hours after administration
Outcome Measure: Number of dead animals/number of animals tested

Guide cases for Number of dead animals/number of animals tested, answers given:
- Compound: "CN1C(=O)Cc2cnc(N3CCCCC3)nc21 [Compound 118]"
  Endpoint Value: "0/5"
- Compound: "CN1CCN(c2ncc3c(n2)N(C)C(=O)C3)CC1 [Compound 138]"
  Endpoint Value: "0/5"
- Compound: "CN1C(=O)Cc2cnc(N3CCSCC3)nc21 [Compound 126]"
  Endpoint Value: "0/5"

If you can, please state the reported Number of dead animals/number of animals tested value of CN(C)c1ncc2c(n1)N(C)C(=O)C2 [Compound 108] .
2/5

Input CN1C(=O)Cc2cnc(N3CCCC3)nc21 [Compound 112]
0/5

Input CCN(CC)C(=O)N1CCN(c2ncc3c(n2)N(C)C(=O)C3)CC1 [Compound 132]
1/5

Input CC(C)Nc1ncc2c(n1)N(C)C(=O)C2.Cl [Compound 102]
0/5

Input CN1C(=O)Cc2cnc(N3CCOCC3)nc21 [Compound 122]
1/5
